# target_system: human PrCP (Homo sapiens (Human))
# Sequence (P42785 46-496): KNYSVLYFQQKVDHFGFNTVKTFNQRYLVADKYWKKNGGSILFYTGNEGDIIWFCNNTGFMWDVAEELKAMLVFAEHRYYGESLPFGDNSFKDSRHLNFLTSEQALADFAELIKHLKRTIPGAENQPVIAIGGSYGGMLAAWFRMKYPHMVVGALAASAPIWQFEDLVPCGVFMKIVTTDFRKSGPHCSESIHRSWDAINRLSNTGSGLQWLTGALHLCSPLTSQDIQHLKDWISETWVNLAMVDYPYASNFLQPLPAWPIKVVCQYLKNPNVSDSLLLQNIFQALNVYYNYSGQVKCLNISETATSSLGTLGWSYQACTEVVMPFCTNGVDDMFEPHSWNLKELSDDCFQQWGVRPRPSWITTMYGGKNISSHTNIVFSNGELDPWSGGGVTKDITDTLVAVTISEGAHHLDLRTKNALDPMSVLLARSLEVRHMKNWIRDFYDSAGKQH
# test_protocol: biochemical

molecule	unit_annotation	IC50
O=C(NC(c1ccc(F)cc1)c1ccc(F)cc1)C1CCC(N2CCOCC2)CC1c1ccc(F)cc1 (single isomer, unassigned)	nM	2.1

FYI, the data here is from patent US8669252B2.
